# experimentalTarget: LTD4 receptor (Cavia porcellus, UniProt Q2NNR5)
# Sequence (Q2NNR5 1-340): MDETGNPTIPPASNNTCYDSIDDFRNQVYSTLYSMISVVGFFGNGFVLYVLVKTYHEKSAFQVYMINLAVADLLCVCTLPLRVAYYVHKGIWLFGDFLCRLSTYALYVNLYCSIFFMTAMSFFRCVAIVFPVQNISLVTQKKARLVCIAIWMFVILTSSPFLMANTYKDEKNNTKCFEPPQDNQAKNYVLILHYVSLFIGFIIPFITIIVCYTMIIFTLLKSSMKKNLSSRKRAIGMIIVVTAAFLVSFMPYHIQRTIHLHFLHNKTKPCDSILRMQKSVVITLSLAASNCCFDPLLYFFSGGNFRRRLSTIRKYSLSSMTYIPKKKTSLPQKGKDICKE
pIC50: −log10 of the molar value.
readoutLabel: pIC50

CCCc1c(OCCCOc2ccc(Sc3ccccc3C(=O)O)cc2)ccc(C(C)=O)c1O: 4.98

P. O=C(O)c1ccccc1Sc1ccc(OCc2ccc3cc(Cl)ccc3n2)cc1
Q. O=C(O)c1ccccc1Sc1ccc(OCCCCN2CCN(Cc3ccc(Cl)cc3)CC2)cc1
R. CCCc1c(OCCCCOc2ccc(Sc3ccc([N+](=O)[O-])cc3C(=O)O)cc2)ccc(C(C)=O)c1O
Task: rank_up(items): orders items by reported pIC50 in ascending numerical order. API: response body holds the labels in the requested order.
Result: Q, R, P
(Q: 4.48, R: 4.82, P: 5.77)
